Entries and their % Inhibition
- tgt: bombesin receptor of rat brain membranes (rat)
- experiment_summary: 125I-Bombesin competition, rat brain membranes
Square brackets hold non-standard residues; d marks the D form. Ends that are not written are not given here. pGlu = O=C1CC[C@@H](C(=O)O)N1; Nle = CCCC[C@H](N)C(=O)O
Quick reminder: number only, in %, skip the unit.

Worked cases, % Inhibition given:
binder="[pGlu]QRLGNCQWAVGHL[Nle]-NH2 (also: Re(V)=O N3S1 chelate at Cys7 (from ReOCl3(PPh3)2)) [metallopeptide 6-9]" unit_tag=% quantitative_readout=91
binder="[dF]QWA[dV]CHLL-NH2 (bridge (positions not given here) via ReOCl3(PPh3)2; also: oxorhenium(V) N3S1 tetradentate complex at Cys 6) [metallopeptide 10-3]" unit_tag=% quantitative_readout=7

Lookup: # get_value(readout='% Inhibition', item= XQRLGNQWAVGHLCX (Pyr 1; Nle 15; C-terminal amide; Re complexed at Cys 14) [metallopeptide 6-2] )
Found: 91

Lookup: Another binder to look at: [pGlu]QRLGNQWACVGHL[Nle]-NH2 (also: Re(V)=O N3S1 chelate at Cys10 (from ReOCl3(PPh3)2)) [metallopeptide 6-6]
Found: 83

Lookup: Another binder to look at: AVCHLL-NH2 (also: bridge at 3 via oxorhenium(V) N3S1 chelate, other end not in the chain) [metallopeptide 11-6]
Found: 6

Lookup: Another binder to look at: Ac-AQCRLGNQWAVGHL[Nle]-NH2 (also: Re(V)=O N3S1 chelate at Cys3 (from ReOCl3(PPh3)2)) [metallopeptide 6-13]
Found: 99

Lookup: Another binder to look at: [pGlu]QRLGNQWAVGHL[Nle]C-NH2 (also: oxorhenium(V) N3S1 chelate at Cys15) [metallopeptide 6-1]
Found: 82

Lookup: Another binder to look at: XQRLGNQWACGHLX (Pyr 1; Nle 14; C-terminal amide; Re complexed at Cys 10) [metallopeptide 7-5]
Found: 61
